# assay.notes: yeast display, Sf9 membrane polyspecificity reagent, FACS + sequencing; frameworks hold sequencing errors
quantity.kind: polyreactivity (PSR sort gate)

Please review the following examples before continuing.
INSERT INTO results (construct_sequence, value_observed) VALUES
  ('QVQLLESGGGLVQAGGSLRLSCAASGSTFGFYAMGCYRPAPGKERELVAAISKSGDITYYADSVKGRFTNSLDNAKNTVYLQMNSLKPEDTAVYYCADRYGYLDNSIYVYWGQGTQVTVSS', 'high polyreactivity'),
  ('QVQLVESGGGLVQAGGSLRKSCAASGSTFVDYDMGWYRQAPGKERELVAGITTGGSTNYADSVKGRFPISRDNAKNTVYLQMNSLKPEDTAVYYCNADSYPILVPDYLYYWYEYWGQGTQVTVSS', 'low polyreactivity'),
  ('QVQLVESGGGLVQAGGSLRLSCAASGSTIPNYAKGWYRQAPGKERELVARIRWNGDSTYYADSVKGRFTISRDNAKNTVYLQMNSLKPEDTAVYYCARQGYTLYRTRYRYDYWGQGTQVTASS', 'high polyreactivity'),
  ('QVQLVESGGGLVQAGGSLRLSCAASGSISGWYAMGWYRQAPGKERELVADISSIAGSTYYADSVKGRFTISRDNAKNTVYLQMNSLKPEDTAVYYCAADDAAWPYSWWGFDYWGQGTQVTVSS', 'low polyreactivity');

Q) polyreactivity (PSR sort gate) lookup needed for `QVQLVESGGGLVQAGGSLRLSCAASGSTFEYYAMGWYRQAPGKERELVAAISRTGGRTYYADSVKGRFTISRDNAKNTVYLQMNSLKPEDTAVYYCNAVTRIGGGDYDDWGQGTQVTVSS` , thanks.
A) low polyreactivity
